Species: Homo sapiens
Assay procedure: Selectivity index, ratio of Ki for PKA (unknown origin) to Ki for ROCK1 (unknown origin)
Checkbox rule: Ratio Ki lower than 30 = yes (1); Ratio Ki not lower than 30 = no (0).

1. CS(=O)(=O)Nc1cccc(CC(=O)Nc2nc(-c3c[nH]c4ncc(Cl)cc34)cs2)c1    no (0)
2. CS(=O)(=O)Nc1cccc(CC(=O)Nc2nnc(-c3c[nH]c4ncccc34)s2)c1    no (0)
3. CS(=O)(=O)Nc1cccc(CC(=O)Nc2nc(-c3c[nH]c4nccc(Cl)c34)cs2)c1    yes (1)
4. CS(=O)(=O)Nc1cccc(CC(=O)Nc2ccc(-c3c[nH]c4ncccc34)s2)c1    no (0)
5. Cc1sc(NC(=O)Cc2cccc(NS(C)(=O)=O)c2)nc1-c1c[nH]c2ncccc12    no (0)
6. CS(=O)(=O)Nc1cccc(CC(=O)Nc2cc(-c3c[nH]c4ncccc34)ncn2)c1    yes (1)
7. CS(=O)(=O)Nc1cccc(CC(=O)Nc2nc(-c3c[nH]c4nccc(F)c34)cs2)c1    no (0)
8. CS(=O)(=O)Nc1cccc(CC(=O)Nc2nc(-c3c[nH]c4ncc(O)cc34)cs2)c1    no (0)
9. CS(=O)(=O)Nc1cccc(CC(=O)Nc2csc(-c3c[nH]c4ncccc34)n2)c1    no (0)
10. CS(=O)(=O)Nc1cccc(CC(=O)Nc2nc(-c3c[nH]c4ncc(F)cc34)cs2)c1    no (0)
11. O=C(Cc1cccc(OCCCC2CCNCC2)c1)Nc1nc(-c2c[nH]c3nccc(F)c23)cs1    no (0)
12. O=C(Cc1cccc(OCCCC2CCNCC2)c1)Nc1nc(-c2c[nH]c3ncc(F)cc23)cs1    no (0)
13. CS(=O)(=O)Nc1cccc(CC(=O)Nc2nccc(-c3c[nH]c4ncccc34)n2)c1    yes (1)
14. CN1CCN(CCCOc2cccc(CC(=O)Nc3nc(-c4c[nH]c5nccc(F)c45)cs3)c2)CC1    no (0)
15. CN1CCN(CCCOc2cccc(CC(=O)Nc3nc(-c4c[nH]c5ncc(F)cc45)cs3)c2)CC1    no (0)
16. CN1CCN(CCOc2cccc(CC(=O)Nc3nc(-c4c[nH]c5ncc(F)cc45)cs3)c2)CC1    no (0)
17. CS(=O)(=O)Nc1cccc(CC(=O)Nc2nc(-c3c[nH]c4ncc(Br)cc34)cs2)c1    no (0)
18. CS(=O)(=O)Nc1cccc(CC(=O)Nc2cc(-c3c[nH]c4ncccc34)cs2)c1    yes (1)

----------
Tested on: THP-1
Assay procedure: Antimigratory activity against human THP-1 cells
Assay type: functional, cell-based
pIC50: −log10 of the molar value.
pIC50 by entry:
Reported property: pIC50

1) CS(=O)(=O)Nc1cccc(CC(=O)Nc2csc(-c3c[nH]c4ncccc34)n2)c1    6.43
2) CN1CCN(CCCOc2cccc(CC(=O)Nc3nc(-c4c[nH]c5ncc(F)cc45)cs3)c2)CC1    6.59
3) CN1CCN(CCOc2cccc(CC(=O)Nc3nc(-c4c[nH]c5ncccc45)cs3)c2)CC1    7.70
4) CS(=O)(=O)Nc1cccc(CC(=O)Nc2ccc(-c3c[nH]c4ncccc34)s2)c1    6.47

----------
Target of assay: Cytochrome P450 3A4 (Homo sapiens)
Sequence (P08684 whole entry): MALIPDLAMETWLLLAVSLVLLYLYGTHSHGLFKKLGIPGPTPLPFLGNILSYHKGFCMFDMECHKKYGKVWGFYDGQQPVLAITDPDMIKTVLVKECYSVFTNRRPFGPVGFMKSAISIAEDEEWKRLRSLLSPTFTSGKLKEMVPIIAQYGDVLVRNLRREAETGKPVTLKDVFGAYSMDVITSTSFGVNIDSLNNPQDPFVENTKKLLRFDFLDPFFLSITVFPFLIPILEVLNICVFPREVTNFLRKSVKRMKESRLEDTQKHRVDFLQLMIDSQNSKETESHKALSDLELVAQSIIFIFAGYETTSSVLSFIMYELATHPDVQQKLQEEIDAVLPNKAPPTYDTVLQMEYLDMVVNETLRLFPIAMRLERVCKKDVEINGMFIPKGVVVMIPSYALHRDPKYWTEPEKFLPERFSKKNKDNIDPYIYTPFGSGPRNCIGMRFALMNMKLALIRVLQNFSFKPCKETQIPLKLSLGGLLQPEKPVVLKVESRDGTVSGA
pIC50: −log10 of the molar value.
Reported property: pIC50

1. CS(=O)(=O)Nc1cccc(CC(=O)Nc2nc(-c3c[nH]c4nccc(F)c34)cs2)c1    4.44
2. O=C(Cc1cccc(OCCCC2CCNCC2)c1)Nc1nc(-c2c[nH]c3nccc(F)c23)cs1    4.00
3. Cc1sc(NC(=O)Cc2cccc(NS(C)(=O)=O)c2)nc1-c1c[nH]c2ncccc12    5.30
